# credit: patent US8012979B2

target: human active recombinant p38α-6His tagged (Homo sapiens, UniProt Q16539); construct: 6His; experiment: p38 Alpha Enzyme Assay (AlphaScreen, biotinylated-ATF2 substrate); format: biochemical; details: pre-incubated 4 hours at 37° C., reaction initiated with ATP; 0.5 nM enzyme; read-out: p38 pIC50 (converted)
Sequence (Q16539 whole entry): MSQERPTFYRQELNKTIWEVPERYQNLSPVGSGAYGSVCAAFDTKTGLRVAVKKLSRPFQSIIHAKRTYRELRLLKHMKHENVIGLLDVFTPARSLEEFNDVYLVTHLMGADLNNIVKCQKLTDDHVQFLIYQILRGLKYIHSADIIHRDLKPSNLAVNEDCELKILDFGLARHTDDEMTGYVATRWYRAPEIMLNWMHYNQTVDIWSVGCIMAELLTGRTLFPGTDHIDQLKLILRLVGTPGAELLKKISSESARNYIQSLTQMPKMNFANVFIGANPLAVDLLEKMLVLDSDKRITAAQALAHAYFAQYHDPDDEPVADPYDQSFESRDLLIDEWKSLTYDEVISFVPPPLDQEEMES
Measured attribute: IC50 (nM)
Please give a number only; it is taken to be in nM.

These solved cases illustrate the format of a correct answer.
molecule=Cc1ccc(C(=O)NC2CC2)cc1-c1ccc2c(=O)n(CC3CC3)cc(CN3CCC(N4CCCCC4)CC3)c2c1 measured_attribute=IC50 value_unit=nM recorded_number=5.01
molecule=Cc1ccc(C(=O)NC2CC2)cc1-c1ccc2c(=O)n(Cc3ccccc3)cc(C(=O)N3CCN(CCO)CC3)c2c1 measured_attribute=IC50 value_unit=nM recorded_number=10
molecule=Cc1c(F)cc(C(=O)NC2CC2)cc1-c1ccc2c(=O)n(CC3CC3)cc(CN3CCCN(C)CC3)c2c1 measured_attribute=IC50 value_unit=nM recorded_number=0.0501

Per the records, this molecule ( "Cc1ccc(C(=O)NC2CC2)cc1-c1ccc2c(=O)n(CC3CC3)cc(CNC3CCN(C)CC3)c2c1" ) has IC50 equal to 7.94

Measured IC50, "Cc1c(F)cc(C(=O)NC2CC2)cc1-c1ccc2c(=O)n(CC3CC3)cc(CN3CCNC[C@H]3CO)c2c1" : 0.0631

Per the records, this molecule ( "Cc1ccc(C(=O)NC2CC2)cc1-c1ccc2c(=O)n(CC3CC3)cc(CN3CCCN(C(C)C)CC3)c2c1" ) has IC50 equal to 1.26

Summary for this molecule, "Cc1ccc(C(=O)NC2CC2)cc1-c1ccc2c(=O)n(CC3CC3)cc(C(=O)N3CCN(C)CC3)c2c1" : IC50 is 5.01
